Known isoTOP-ABPP reactivity ratio at lysine P55263_K88 of a selection of molecules
Target: ADK Adenosine kinase (Homo sapiens, UniProt P55263)
Construct: isoTOP-ABPP experiments performed in cell lysates (in vitro); endogenous in cells; host or cells: soluble proteome of human cancer cell lines (MDA-MB-231, Ramos, Jurkat)
Sequence (P55263 whole entry): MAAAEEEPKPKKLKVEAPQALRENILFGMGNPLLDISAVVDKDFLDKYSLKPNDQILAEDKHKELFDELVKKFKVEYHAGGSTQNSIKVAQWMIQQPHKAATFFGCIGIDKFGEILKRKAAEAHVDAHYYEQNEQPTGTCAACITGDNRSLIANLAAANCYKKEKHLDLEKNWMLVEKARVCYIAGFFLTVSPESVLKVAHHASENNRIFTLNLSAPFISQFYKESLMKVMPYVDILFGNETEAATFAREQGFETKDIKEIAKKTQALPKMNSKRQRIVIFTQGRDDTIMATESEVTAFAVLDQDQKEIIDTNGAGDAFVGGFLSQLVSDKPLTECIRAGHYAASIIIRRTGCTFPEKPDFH
Test: competitive isoTOP-ABPP
Type: binding
Parameters: key: R = MS1 peak area ratio, DMSO (heavy) / compound-treated (light)
Settings: 50 uM, 231 sol, in vitro
Lab note: record the figure alone, no unit after it.

For orientation, consider the following solved cases.
O=C(CN1C(=O)c2ccccc2C1=O)Oc1c(F)c(F)c(F)c(F)c1F ... 0.8
Cn1cc(CC(=O)Oc2ccc([N+](=O)[O-])cc2[N+](=O)[O-])c2ccccc21 ... 1.4
O=C(Oc1c(F)c(F)c(F)c(F)c1F)C1CCN(C(=O)OCc2ccccc2)CC1 ... 1.0

Please look up its isoTOP-ABPP reactivity ratio at lysine P55263_K88: O=C(Oc1ccc([N+](=O)[O-])cc1[N+](=O)[O-])c1cc(C(F)(F)F)cc(C(F)(F)F)c1 0.7

---

Known isoTOP-ABPP ratio (R) at liganded lysine P62875_K67 of a selection of molecules
Biological target: POLR2L DNA-directed RNA polymerases I, II, and III subunit (Homo sapiens)
Construct: isoTOP-ABPP experiments performed in cell lysates (in vitro); endogenous in cells; host or cells: soluble proteome of human cancer cell lines (MDA-MB-231, Ramos, Jurkat)
Assay: competitive isoTOP-ABPP
Type: binding
Conditions: 50 uM, in vitro, sol, 231
Lab note: record the figure alone, no unit after it.

CC(C)(C)OC(=O)NCCCC(=O)Oc1ccc([N+](=O)[O-])cc1[N+](=O)[O-] [fragment 41] ... 2.6
O=C(Oc1ccc([N+](=O)[O-])cc1[N+](=O)[O-])C(c1ccccc1)(c1ccccc1)c1ccccc1 [fragment 42, 2,4-Dinitrophenyl 2,2,2-triphenylacetate] ... 1.0
O=C(Oc1ccc([N+](=O)[O-])cc1[N+](=O)[O-])c1ccccc1Nc1cccc(C(F)(F)F)c1 [fragment 40] ... 1.0
O=C(CCc1coc2cc(F)ccc2c1=O)Oc1ccc([N+](=O)[O-])cc1[N+](=O)[O-] [fragment 36] ... 4.1
O=C(Oc1ccc([N+](=O)[O-])cc1[N+](=O)[O-])c1ccc2ccccc2n1 [fragment 35] ... 0.9
O=C(Oc1ccc([N+](=O)[O-])cc1[N+](=O)[O-])c1ccc(-c2ccccc2)cc1 [fragment 37] ... 0.9
O=C(Oc1ccc([N+](=O)[O-])cc1[N+](=O)[O-])C1CCN(C(=O)OCc2ccccc2)CC1 [fragment 34] ... 1.0

Please look up its isoTOP-ABPP ratio (R) at liganded lysine P62875_K67: O=C(Oc1ccc([N+](=O)[O-])cc1[N+](=O)[O-])c1ccc(Oc2ccccc2)cc1 [fragment 39, 2,4-Dinitrophenyl 4-phenoxybenzoate] 0.9

---

Known isoTOP-ABPP ratio, lysine Q96EL2_K94 of a selection of compounds
Biological target: MRPS24 28S ribosomal protein S24, mitochondrial (Homo sapiens, UniProt Q96EL2)
Construct: isoTOP-ABPP experiments performed in cell lysates (in vitro); endogenous in cells; host or cells: soluble proteome of human cancer cell lines (MDA-MB-231; Ramos and Jurkat also prepared)
Experiment: competitive isoTOP-ABPP
Type: binding
Settings: 50 uM_231_sol_in vitro
Description: In vitro covalent fragment treatment for isoTOP-ABPP. All compounds were made up as solutions in DMSO (100×) and were used at a final concentration of 50 μM for activated esters and 100 μM for guanidinylating agents. […] R value calculation and processing. The ratios of light and heavy MS1 peaks for each unique peptide were quantified with a CIMAGE software using default parameters (3 MS1 acquisitions per peak and signal to noise threshold set to 2.5). […]
Lab note: record the figure alone, no unit after it.

O=C(Oc1c(F)c(F)cc(F)c1F)c1cc(C(F)(F)F)cc(C(F)(F)F)c1 ... 1.0

Field: isoTOP-ABPP ratio, lysine Q96EL2_K94 (MRPS24 28S ribosomal protein S24, mitochondrial (Homo sapiens, UniProt Q96EL2)). Entry: O=C(ON1C(=O)CCC1=O)c1cc(C(F)(F)F)cc(C(F)(F)F)c1 1.0

Field: isoTOP-ABPP ratio, lysine Q96EL2_K94 (MRPS24 28S ribosomal protein S24, mitochondrial (Homo sapiens, UniProt Q96EL2)). Entry: NC(=O)c1cc(C(F)(F)F)cc(C(F)(F)F)c1 [fragment 51, reference compound] 0.9

Field: isoTOP-ABPP ratio, lysine Q96EL2_K94 (MRPS24 28S ribosomal protein S24, mitochondrial (Homo sapiens, UniProt Q96EL2)). Entry: N#Cc1ccc(C(=O)Oc2ccc([N+](=O)[O-])cc2[N+](=O)[O-])cc1 [fragment 44, 2,4-Dinitrophenyl 4-cyanobenzoate] 1.1

---

Target: RINT1 RAD50-interacting protein 1 (Homo sapiens)
Construct: isoTOP-ABPP experiments performed in cell lysates (in vitro); endogenous in cells; host or cells: soluble proteome of human cancer cell lines (MDA-MB-231; Ramos and Jurkat also prepared)
Sequence (Q6NUQ1 whole entry): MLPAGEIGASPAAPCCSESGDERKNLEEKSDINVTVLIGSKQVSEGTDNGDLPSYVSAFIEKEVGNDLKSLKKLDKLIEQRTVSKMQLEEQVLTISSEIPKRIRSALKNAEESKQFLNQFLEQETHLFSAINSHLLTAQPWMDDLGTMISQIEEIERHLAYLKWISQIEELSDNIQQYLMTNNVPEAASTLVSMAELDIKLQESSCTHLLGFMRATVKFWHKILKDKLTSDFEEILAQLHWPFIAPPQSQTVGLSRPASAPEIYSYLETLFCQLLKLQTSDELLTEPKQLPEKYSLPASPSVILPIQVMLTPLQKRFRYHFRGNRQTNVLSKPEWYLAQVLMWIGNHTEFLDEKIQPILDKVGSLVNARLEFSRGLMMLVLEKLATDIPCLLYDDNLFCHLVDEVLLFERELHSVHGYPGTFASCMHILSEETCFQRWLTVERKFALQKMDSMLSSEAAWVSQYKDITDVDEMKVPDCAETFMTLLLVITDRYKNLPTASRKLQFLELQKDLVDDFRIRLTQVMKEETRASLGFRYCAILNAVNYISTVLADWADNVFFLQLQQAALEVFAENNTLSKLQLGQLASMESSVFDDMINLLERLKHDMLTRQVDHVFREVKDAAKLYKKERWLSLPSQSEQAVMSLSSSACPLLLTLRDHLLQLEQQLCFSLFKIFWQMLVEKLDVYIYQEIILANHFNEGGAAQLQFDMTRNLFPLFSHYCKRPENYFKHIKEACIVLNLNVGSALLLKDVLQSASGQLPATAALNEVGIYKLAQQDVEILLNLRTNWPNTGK
Assay: competitive isoTOP-ABPP
Format: binding
Details: 50 uM, in vitro, sol, 231
metric: isoTOP-ABPP ratio (R) at liganded lysine Q6NUQ1_K771
Lab note: record the figure alone, no unit after it.

O=C(Oc1ccc([N+](=O)[O-])cc1[N+](=O)[O-])c1ccc2ccccc2n1 ... 1.7
O=C(Oc1ccc([N+](=O)[O-])cc1[N+](=O)[O-])c1ccc(Oc2ccccc2)cc1 [fragment 39, 2,4-Dinitrophenyl 4-phenoxybenzoate] ... 1.5
O=C(Oc1ccc([N+](=O)[O-])cc1[N+](=O)[O-])C(c1ccccc1)(c1ccccc1)c1ccccc1 [fragment 42, 2,4-Dinitrophenyl 2,2,2-triphenylacetate] ... 1.1
O=C(CC12CC3CC(CC(C3)C1)C2)Oc1ccc([N+](=O)[O-])cc1[N+](=O)[O-] ... 1.2

Please look up its isoTOP-ABPP ratio (R) at liganded lysine Q6NUQ1_K771: O=C(CCc1coc2cc(F)ccc2c1=O)Oc1ccc([N+](=O)[O-])cc1[N+](=O)[O-] 0.9

Please look up its isoTOP-ABPP ratio (R) at liganded lysine Q6NUQ1_K771: O=C(Oc1ccc([N+](=O)[O-])cc1[N+](=O)[O-])c1ccccc1Nc1cccc(C(F)(F)F)c1 1.1

Please look up its isoTOP-ABPP ratio (R) at liganded lysine Q6NUQ1_K771: CC(=O)Oc1ccc([N+](=O)[O-])cc1[N+](=O)[O-] [fragment 43, 2,4-Dinitrophenyl acetate] 1.0

Please look up its isoTOP-ABPP ratio (R) at liganded lysine Q6NUQ1_K771: O=C(Oc1ccc([N+](=O)[O-])cc1[N+](=O)[O-])c1ccc(-c2ccccc2)cc1 1.3

Please look up its isoTOP-ABPP ratio (R) at liganded lysine Q6NUQ1_K771: O=C(Oc1ccc([N+](=O)[O-])cc1[N+](=O)[O-])C1CCN(C(=O)OCc2ccccc2)CC1 1.3

Please look up its isoTOP-ABPP ratio (R) at liganded lysine Q6NUQ1_K771: CC(C)(C)OC(=O)NCCCC(=O)Oc1ccc([N+](=O)[O-])cc1[N+](=O)[O-] 0.8

---

Known isoTOP-ABPP ratio (R) at liganded lysine P42345_K2066 of a selection of molecules
Molecular target: MTOR Serine/threonine-protein kinase mTOR (Homo sapiens)
Construct: isoTOP-ABPP experiments performed in cell lysates (in vitro); endogenous in cells; host or cells: soluble proteome of human cancer cell lines (MDA-MB-231; Ramos and Jurkat also prepared)
Test: competitive isoTOP-ABPP
Type: binding
Conditions: 50 uM, in vitro, sol, 231
Lab note: record the figure alone, no unit after it.

For orientation, consider the following solved cases.
O=C(Oc1ccc([N+](=O)[O-])cc1[N+](=O)[O-])c1ccc2ccccc2n1 ... 1.1
O=C(CC12CC3CC(CC(C3)C1)C2)Oc1ccc([N+](=O)[O-])cc1[N+](=O)[O-] ... 1.1
CC(=O)Oc1ccc([N+](=O)[O-])cc1[N+](=O)[O-] [fragment 43, 2,4-Dinitrophenyl acetate] ... 1.6
O=C(Oc1ccc([N+](=O)[O-])cc1[N+](=O)[O-])c1ccccc1Nc1cccc(C(F)(F)F)c1 ... 0.8
O=C(Oc1ccc([N+](=O)[O-])cc1[N+](=O)[O-])c1ccc(-c2ccccc2)cc1 ... 1.0
O=C(CCc1coc2cc(F)ccc2c1=O)Oc1ccc([N+](=O)[O-])cc1[N+](=O)[O-] ... 3.0

Now look at this entry.
Please look up its isoTOP-ABPP ratio (R) at liganded lysine P42345_K2066: O=C(Oc1ccc([N+](=O)[O-])cc1[N+](=O)[O-])C1CCN(C(=O)OCc2ccccc2)CC1 1.1

---

Known R value (DMSO/fragment) for probe 1 labeling of a selection of compounds
Molecular target: FAH Fumarylacetoacetase (Homo sapiens, UniProt P16930)
Construct: isoTOP-ABPP experiments performed in cell lysates (in vitro); endogenous in cells; host or cells: soluble proteome of human cancer cell lines (MDA-MB-231; Ramos and Jurkat also prepared)
Sequence (P16930 whole entry): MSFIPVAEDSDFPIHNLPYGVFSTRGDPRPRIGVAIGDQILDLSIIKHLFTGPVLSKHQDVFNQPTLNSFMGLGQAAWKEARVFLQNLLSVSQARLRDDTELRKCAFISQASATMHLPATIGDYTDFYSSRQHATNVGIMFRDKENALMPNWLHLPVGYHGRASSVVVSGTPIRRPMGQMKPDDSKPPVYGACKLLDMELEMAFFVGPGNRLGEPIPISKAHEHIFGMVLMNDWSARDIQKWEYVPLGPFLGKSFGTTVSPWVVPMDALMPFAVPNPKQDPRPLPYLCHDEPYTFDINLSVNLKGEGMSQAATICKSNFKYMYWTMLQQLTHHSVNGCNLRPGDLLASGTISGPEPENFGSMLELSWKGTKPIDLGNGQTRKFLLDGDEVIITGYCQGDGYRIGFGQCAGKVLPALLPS
Assay: competitive isoTOP-ABPP
Type: binding
Conditions: P16930_K241; 50 uM, 231 sol, in vitro
Lab note: record the figure alone, no unit after it.

For orientation, consider the following solved cases.
O=C(CCc1cn(-c2ccccc2)nc1-c1ccccc1)Oc1c(F)c(F)c(F)c(F)c1F ... 2.5
Cn1cc(CC(=O)Oc2c(F)c(F)c(F)c(F)c2F)c2ccccc21 ... 3.0
O=C(Oc1c(F)c(F)c(F)c(F)c1F)C(c1ccccc1)c1ccccc1 [fragment 20, Pentafluorophenyl 2,2-diphenylacetate] ... 1.0
COc1cc(CCC(=O)Oc2c(F)c(F)c(F)c(F)c2F)cc(OC)c1OC ... 2.8

Now look at this entry.
Please look up its R value (DMSO/fragment) for probe 1 labeling: O=C(Oc1c(F)c(F)c(F)c(F)c1F)c1cc(C(F)(F)F)cc(C(F)(F)F)c1 2.0
